Ratio Reversibility for assorted compounds
assayed-system: rNav1.2 sodium channels (Rattus norvegicus)
Construct: host or cells: HEK-293
Sequence (P04775 whole entry): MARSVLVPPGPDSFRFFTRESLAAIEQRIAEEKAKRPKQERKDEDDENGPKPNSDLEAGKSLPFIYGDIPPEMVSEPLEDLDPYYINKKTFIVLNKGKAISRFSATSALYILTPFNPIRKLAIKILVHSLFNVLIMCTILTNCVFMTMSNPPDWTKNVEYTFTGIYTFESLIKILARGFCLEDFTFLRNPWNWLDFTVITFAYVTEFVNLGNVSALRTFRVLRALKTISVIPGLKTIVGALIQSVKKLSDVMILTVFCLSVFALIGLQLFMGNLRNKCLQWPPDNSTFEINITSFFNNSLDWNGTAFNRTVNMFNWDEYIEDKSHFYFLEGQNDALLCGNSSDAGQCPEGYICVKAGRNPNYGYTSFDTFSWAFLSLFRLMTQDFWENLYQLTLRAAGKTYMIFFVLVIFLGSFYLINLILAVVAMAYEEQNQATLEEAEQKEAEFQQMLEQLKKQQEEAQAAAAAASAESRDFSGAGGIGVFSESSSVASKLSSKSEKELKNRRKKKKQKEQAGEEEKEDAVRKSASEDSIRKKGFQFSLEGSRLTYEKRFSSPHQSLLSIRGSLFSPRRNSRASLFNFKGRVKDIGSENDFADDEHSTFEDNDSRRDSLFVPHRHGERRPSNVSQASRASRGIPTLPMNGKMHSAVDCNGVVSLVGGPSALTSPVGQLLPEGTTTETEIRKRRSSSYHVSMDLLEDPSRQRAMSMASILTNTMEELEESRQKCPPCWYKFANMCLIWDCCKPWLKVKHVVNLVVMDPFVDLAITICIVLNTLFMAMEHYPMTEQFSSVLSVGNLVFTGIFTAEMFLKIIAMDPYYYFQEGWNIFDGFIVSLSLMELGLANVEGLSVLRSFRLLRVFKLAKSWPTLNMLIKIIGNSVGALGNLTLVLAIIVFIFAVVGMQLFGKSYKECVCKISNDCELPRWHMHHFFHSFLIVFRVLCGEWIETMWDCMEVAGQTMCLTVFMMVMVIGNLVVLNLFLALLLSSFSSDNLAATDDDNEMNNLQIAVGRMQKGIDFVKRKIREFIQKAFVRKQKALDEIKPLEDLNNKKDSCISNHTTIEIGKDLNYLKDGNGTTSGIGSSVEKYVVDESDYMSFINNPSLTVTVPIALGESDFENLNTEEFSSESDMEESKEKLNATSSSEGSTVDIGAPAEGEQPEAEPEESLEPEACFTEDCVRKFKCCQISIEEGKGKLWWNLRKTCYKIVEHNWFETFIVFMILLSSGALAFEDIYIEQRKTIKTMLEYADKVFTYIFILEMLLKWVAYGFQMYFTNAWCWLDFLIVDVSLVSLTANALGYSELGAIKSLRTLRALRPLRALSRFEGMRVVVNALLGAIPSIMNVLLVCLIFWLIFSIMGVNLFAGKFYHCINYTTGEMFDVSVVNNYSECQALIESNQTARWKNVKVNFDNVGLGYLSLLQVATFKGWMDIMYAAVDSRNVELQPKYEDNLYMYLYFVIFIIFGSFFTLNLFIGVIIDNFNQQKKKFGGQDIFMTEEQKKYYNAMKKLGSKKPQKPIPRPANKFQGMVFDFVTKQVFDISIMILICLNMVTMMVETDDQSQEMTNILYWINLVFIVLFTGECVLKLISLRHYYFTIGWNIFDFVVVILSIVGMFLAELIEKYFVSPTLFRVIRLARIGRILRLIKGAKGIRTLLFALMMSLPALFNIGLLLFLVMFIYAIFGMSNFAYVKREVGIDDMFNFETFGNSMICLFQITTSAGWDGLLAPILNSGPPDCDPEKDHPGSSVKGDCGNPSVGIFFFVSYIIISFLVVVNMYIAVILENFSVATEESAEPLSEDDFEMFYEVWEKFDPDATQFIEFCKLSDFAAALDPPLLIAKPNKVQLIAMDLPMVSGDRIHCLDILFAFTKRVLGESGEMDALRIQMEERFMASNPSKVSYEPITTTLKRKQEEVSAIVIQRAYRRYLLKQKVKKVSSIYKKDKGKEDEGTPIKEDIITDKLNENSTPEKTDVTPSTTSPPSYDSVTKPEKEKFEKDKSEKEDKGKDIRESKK
experiment-notes: QPatch automated patch clamp, inhibition of sodium currents evoked by 5 Hz trains at three extracellular pH values
Format: cell-based
test-settings: pH 7.3/8.6; cc 300 mM
Procedure: HEK-293 cells stably expressing rNav1.2 sodium channels were obtained from NeuroSearch (Ballerup, Denmark). The cells were grown in Dulbecco's modified Eagle medium supplemented with 10% FBS. Prior to use, the cells were trypsinized and subsequently kept in suspension in the QPatch cell storage facility in CHO-S- SFM-II medium. […] Data were sampled at a frequency of 25 kHz and filtered at 5 kHz. Junction potential was calculated to be −11 mV and was corrected for. […]
Write the number on its own, no unit after it.

Worked examples follow.
Recall the recorded Ratio Reversibility for O=C(NCC1CCCCN1)c1cc(OCC(F)(F)F)ccc1OCC(F)(F)F (centres unmarked) [flecainide] with rNav1.2 sodium channels (Rattus norvegicus) and state it. 2.446

Recall the recorded Ratio Reversibility for "Nc1nnc(-c2cccc(Cl)c2Cl)c(N)n1" with rNav1.2 sodium channels (Rattus norvegicus) and state it. 1.215

Recall the recorded Ratio Reversibility for Cc1cccc(C)c1OCC(C)N (centres unmarked) with rNav1.2 sodium channels (Rattus norvegicus) and state it. 1.317

Recall the recorded Ratio Reversibility for "O=C1NC(=O)C(c2ccccc2)(c2ccccc2)N1" with rNav1.2 sodium channels (Rattus norvegicus) and state it. 1.295

Turning now to a further compound:
Recall the recorded Ratio Reversibility for NC(=O)N1c2ccccc2C=Cc2ccccc21 [carbamazepine] with rNav1.2 sodium channels (Rattus norvegicus) and state it. 1.312

Reference source: paper PMC4585259
